Measured values drawn from patent US20250270343A1 for this set.

Consider the following binders and their measured CD80 (FoB) readings.
- assay.target: T1, full-length untagged human GPNMB expressed on cells (human, UniProt Q14956 23-572)
- T1 sequence: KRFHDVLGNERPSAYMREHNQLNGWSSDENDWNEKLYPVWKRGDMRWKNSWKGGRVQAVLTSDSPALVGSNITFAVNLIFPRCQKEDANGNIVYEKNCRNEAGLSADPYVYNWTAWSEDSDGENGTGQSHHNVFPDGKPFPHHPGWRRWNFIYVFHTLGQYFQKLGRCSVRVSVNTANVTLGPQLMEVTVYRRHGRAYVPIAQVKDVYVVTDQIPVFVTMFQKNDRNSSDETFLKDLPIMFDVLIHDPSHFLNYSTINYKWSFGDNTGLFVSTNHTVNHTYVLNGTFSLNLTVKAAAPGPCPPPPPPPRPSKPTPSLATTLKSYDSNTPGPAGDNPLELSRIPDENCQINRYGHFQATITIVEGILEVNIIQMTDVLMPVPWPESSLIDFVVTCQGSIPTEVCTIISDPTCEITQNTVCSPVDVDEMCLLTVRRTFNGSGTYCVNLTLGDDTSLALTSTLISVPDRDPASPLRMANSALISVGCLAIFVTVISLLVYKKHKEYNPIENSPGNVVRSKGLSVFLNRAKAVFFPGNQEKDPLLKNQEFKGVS
- protocol: cell-based or functional assay
Give just the numeric value; FoB need not be written.

Solved cases (2 shown):
anti-GPNMB antibody GPN-24 (antibody, human IgG1, V domains shown, chimeric) VH: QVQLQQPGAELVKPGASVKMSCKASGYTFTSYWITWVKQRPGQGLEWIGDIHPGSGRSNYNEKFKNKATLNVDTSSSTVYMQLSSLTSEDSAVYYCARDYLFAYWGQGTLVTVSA VL: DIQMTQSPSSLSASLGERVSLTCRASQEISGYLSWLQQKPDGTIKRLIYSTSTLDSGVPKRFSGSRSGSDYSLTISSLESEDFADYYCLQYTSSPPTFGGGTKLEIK: 1.2
anti-GPNMB antibody GPN-03 (antibody, human IgG1, V domains shown, chimeric) VH: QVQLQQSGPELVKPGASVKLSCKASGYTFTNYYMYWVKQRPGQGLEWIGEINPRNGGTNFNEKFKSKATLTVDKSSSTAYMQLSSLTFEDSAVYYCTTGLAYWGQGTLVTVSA VL: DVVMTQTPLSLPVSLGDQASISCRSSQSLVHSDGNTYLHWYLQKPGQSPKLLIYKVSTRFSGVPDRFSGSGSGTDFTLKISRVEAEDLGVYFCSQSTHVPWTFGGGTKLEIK: 1.4

Entry anti-GPNMB antibody GPN-07 (antibody, human IgG1, V domains shown, chimeric) VH: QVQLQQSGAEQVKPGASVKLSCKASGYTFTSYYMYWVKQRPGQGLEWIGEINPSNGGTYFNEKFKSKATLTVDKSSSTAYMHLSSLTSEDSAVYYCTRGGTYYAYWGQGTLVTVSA VL: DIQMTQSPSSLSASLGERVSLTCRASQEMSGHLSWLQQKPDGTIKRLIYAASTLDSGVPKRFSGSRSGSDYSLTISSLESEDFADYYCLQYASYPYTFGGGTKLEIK ; CD80 (FoB) = 1.29
